Each entry below carries its recorded FOB.
Target: T1, human SIRPβ1 isoform 1 on cells (human, UniProt O00241 30-398)
T1 construct: On CHO cells (low level), on BWZ/BW5147.G.1.4 cells (reporter cells co-express human DAP12) or on primary human myeloid cells; also called huSIRPβ1; BWZ-huSIRPβ1
T1 sequence (O00241 30-398): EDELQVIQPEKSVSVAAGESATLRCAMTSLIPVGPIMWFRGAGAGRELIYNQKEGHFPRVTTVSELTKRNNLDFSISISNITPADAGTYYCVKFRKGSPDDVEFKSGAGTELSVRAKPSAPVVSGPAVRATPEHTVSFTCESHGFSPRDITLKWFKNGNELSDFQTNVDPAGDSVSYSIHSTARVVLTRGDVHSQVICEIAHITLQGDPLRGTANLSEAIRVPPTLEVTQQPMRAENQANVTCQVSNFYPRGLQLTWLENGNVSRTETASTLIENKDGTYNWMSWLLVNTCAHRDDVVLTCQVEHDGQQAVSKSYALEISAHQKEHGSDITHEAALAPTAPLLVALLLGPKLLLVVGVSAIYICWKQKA
Test: flow cytometry;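 also: antibodies tested at 1 µg/ml for 30 min on ice against receptor-expressing cells, detected with a PE-labelled secondary antibody, read as mean fluorescence intensity relative to background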
Unit fold over background implied. Number only.

binder	value
SB-41 (antibody, V domains shown, IgG) VH: QLQLQESGPGLVKPSETLSLTCTVSGGSISSSSYYWGWIRQPPGKGLEWIGSIYYSGSTYYNPSLKSRVTISVDTSKNQFSLKLSSVTAADTAVYYCARVGQYPIYGMDVWGQGTTVTVSS VL: DIQMTQSPSSLSASVGDRVTITCQASQDITNYLNWYQQKPGKAPKLLIYDASNLETGVPSRFSGSGSGTDFTFTISSLQPEDIATYYCQQADNFPYTFGGGTKVEIK	1.7
SB-39 (antibody, V domains shown, IgG) VH: QVQLQESGPGLVKPSETLSLTCAVSGYSISSGYYWAWIRQPPGKGLEWIGSIYHSGSTYYNPSLKSRVTISVDTSKNQFSLKLSSVTAADTAVYYCARGGSNYGDYGRFDYWGQGTLVTVSS VL: DIQMTQSPSSLSASVGDRVTITCRASQSISSYLNWYQQKPGKAPKLLIYGASSLQSGVPSRFSGSGSGTDFTLTISSLQPEDFATYYCQQSYDFPLTFGGGTKVEIK	5
SB-30 (antibody, V domains shown, IgG) VH: QVQLQESGPGLVKPSQTLSLTCTVSGGSISSGGYYWSWIRQHPGKGLEWIGYIYYSGSTVYNPSLKSRVTISVDTSKNQFSLKLSSVTAADTAVYYCAREGPGYPSYFDPWGQGTLVTVSS VL: EIVLTQSPGTLSLSPGERATLSCRASQSVSSSFLAWYQQKPGQAPRLLIYGASSRATGIPDRFSGSGSGTDFTLTISRLEPEDFAVYYCQQFLSSPWTFGGGTKVENQ	1.7
SB-28 (antibody, V domains shown, IgG) VH: QLQLQESGPGLVKPSETLSLTCTVSGGSISSSSYYWGWIRQPPGKGLEWIGSISYSGSTYYNPSLKSRVTISVDTSKNQFSLKLSSVTAADTAVYYCARDPRDYSSGSSGGGWGYFDLWGRGTLVTVSS VL: EIVLTQSPGTLSLSPGERATLSCRASQSVSSSYLAWYQQKPGQAPRLLIYGASSRATGIPDRFSGSGSGTDFTLTISRLEPEDFAVYYCQQDGNFPLTFGGGTKVEIK	4.1
SB-45 (antibody, V domains shown, IgG) VH: QVQLQESGPGLVKPSETLSLTCAVSGYSISSGYYWAWIRQPPGKGLEWIGSIYHSGSTYYNPSLKSRVTISVDTSKNQFSLKLSSVTAADTAVYYCARDLSRGYAVSGMDVWGQGTTVTVSS VL: VLTQSPGTLSLSPGERATLSCRASQSVSSSFLAWYQQKPGQAPRLLIYGASSRATGIPDRFSGSGSGTDFTLTISRLEPEDFAVYYCQQVVSVPTFGGGTKVEIK	8.5

For the binder shown here, SB-24 (antibody, V domains shown, IgG) VH: QVQLQESGPGLVKPSETLSLTCAVSGYSISSGYYWAWIRQPPGKGLEWIGSIYHSGSTYYNPSLKSRVTISVDTSKNQFSLKLSSVTAADTAVYYCARDRSRGYPVYGMDVWGQGTTVTVSS VL: EIVMTQSPATLSVSPGERATLSCRASQSVSSNLAWYQQKPGQAPRLLIYGASTRATGIPARFSGSGSGTEFTLTISSLQSEDFAVYYCQQLNIHPWTFGGGTKVEIK , give the reported FOB.
3.7

For the binder shown here, SB-42 (antibody, V domains shown, IgG) VH: QVQLVQSGAEVKKPGASVKVSCKASGYTFTSYGISWVRQAPGQGLEWMGWISAYNGNTNYAQKLQGRVTMTTDTSTSTAYMELRSLRSDDTAVYYCARGPGHYYVAGMDVWGQGTTVTVSS VL: EIVMTQSPATLSVSPGERATITCRASQSISSYLNWYQQKPGKAPKLLIYSASSLQSGVPSRFSGSGSGTDFTLTISSLQPEDFATYYCQQGDSFPITFGGGTKVEIK , give the reported FOB.
3.3

For the binder shown here, SB-36 (antibody, V domains shown, IgG) VH: QVQLVQSGAEVKKPGASVKVSCKASGYTFTSYYMHWVRQAPGQGLEWMGIINPSGGSTSYAQKFQGRVTMTRDTSTSTVYMELSSLRSEDTAVYYCAREGPEQLWYLDYWGQGTLVTVSS VL: DIQMTQSPSSVSASVGDRVTITCRASQGISSWLAWYQQKPGKAPKLLIYAASSLQSGVPSRFSGSGSGTDFTLTISSLQPEDFATYYCQQAFSHRTFGGGTKVEIK , give the reported FOB.
1.7

For the binder shown here, SB-48 (antibody, V domains shown, IgG) VH: QVQLVESGGGVVQPGRSLRLSCAASGFTFSSYGMHWVRQAPGKGLEWVAVISYDGSNKYYADSVKGRFTISRDNSKNTLYLQMNSLRAEDTAVYYCARDGTIAAAGWPPEYFQHWGQGTLVTVSS VL: DIQMTQSPSSVSASVGDRVTITCRASQGIDSWLAWYQQKPGKAPKLLIYAASSLQSGVPSRFSGSGSGTDFTLTISSLQPEDFATYYCQQASNFPITFGGGTKVEIK , give the reported FOB.
1.7

For the binder shown here, SB-38 (antibody, V domains shown, IgG) VH: QVQLVQSGAEVKKPGASVKVSCKASGYTFTSYYMHWVRQAPGQGLEWMGIINPSGGSTSYAQKFQGRVTMTRDTSTSTVYMELSSLRSEDTAVYYCARESGTDFGTISYWGQGTLVTVSS VL: DIQMTQSPSSVSASVGDRVTITCRASQGISSWLAWYQQKPGKAPKLLIYAASSLQSGVPSRFSGSGSGTDFTLTISSLQPEDFATYYCQQAVSYPITFGGGTKVEIK , give the reported FOB.
1.5
